Target: SARS-CoV-2 Wuhan-Hu-1 NTD (SARS-CoV-2 Wuhan-Hu-1, UniProt P0DTC2)
Assay: BLI
readout: binding result

binder | readout | measured-value
C1791 IgG (antibody, V domains shown) VH: EVQLLESGGGLVQPGGSRRLSCAASGFTFSIAAMSWVRQAPGKGLEWVSVISTSGGTSYYADSVRGRFTISRDNSQNTLYLQMNSLSAEDTAIYYCAKDLGSYFPDYWGQGTLVTVSS VL: DIQMTQSPSSLSASVGDRVTITCRASQGIRNDIGWYQQKPGKAPKRLIHAASSLQSGVPSRFSGSGSGTEFTLTISSLQPEDFATYYCLQYNSYPRVTFGPGTKVDIK | binding result | binds
C1554 IgG (antibody, V domains shown) VH: QVQLVQSGAEVKKPGASVKVSCKVSGYTLPEISIHWVREAPGKGLEWMGGFDPEDGETIYSQRFQGRVTMTEDTSTDTAYMELSSLRSEDTAVYYCAASSPFSGGWFHPWGQGTLVTVSS VL: QSALTQPASVSGSPGQSITISCTETSSDVGNYNLVSWYQQHPGKAPKLVIYEGTKRPSGVSNRFSASKSGNTASLTISELQAEDEANYYCCSYARSGVFGGGTKLTVL | binding result | binds
C1704 IgG (antibody, V domains shown) VH: QVQLVQSGAEVKKPGASVKVSCKVSGYTLTELSIHWVRQAPGKGLEWMGSFDPEDGETICAQKFQGRVTMTEDTSTDTAYMELSSLRSEDTAVYYCATEWRGCSDTSCQGTNWFDPWGQGTLVTVSS VL: QPVLTQSPSASASLGASVKLTCTLSSGHSTYAIAWHQQQPEKGPRYLMKLNSDGSHNKGDGIPDRFSGSSSGAERYLTISSLQSEDEADYYCQTWGTGVRVFGGGTKLTVL | binding result | binds

The reported measurements were obtained from paper PMC8986478.
